Recorded values, source ChEMBL document CHEMBL4699477.

procedureDetails: Metabolic stability in human liver microsomes assessed as half life
Assay type: ADME, Microsome
Quick list: half-life per entry.
propertyMeasured: half-life

In [3]: df
Out[3]:
                                 smilescode  measuredvalue
0  O=C(O)[C@H]1CC[C@H](C(=O)N2CC[C@@]3(S(=O)(=O)c4ccc(F)cc4)c4cc(Cl)c(C(F)(C(F)(F)F)C(F)(F)F)cc4CC[C@@H]23)CC1          > 2 h
1  C[C@H]1C[C@H](C(=O)O)CC[C@H]1C(=O)N1CC[C@@]2(S(=O)(=O)c3ccc(F)cc3)c3ccc(C(F)(C(F)(F)F)C(F)(F)F)cc3CC[C@@H]12          > 2 h
2  C[C@H]1C[C@H](C(=O)O)CC[C@H]1C(=O)N1CC[C@@]2(S(=O)(=O)c3ccccc3)c3cc(F)c(C(F)(C(F)(F)F)C(F)(F)F)cc3CC[C@@H]12          > 2 h
3  N#Cc1cc2c(cc1C(F)(C(F)(F)F)C(F)(F)F)CC[C@H]1N(C(=O)[C@H]3CC[C@H](C(=O)O)CC3)CC[C@@]21S(=O)(=O)c1ccc(F)cc1          > 2 h
4  Cc1cc2c(cc1C(F)(C(F)(F)F)C(F)(F)F)CC[C@H]1N(C(=O)[C@H]3CC[C@H](C(=O)O)CC3)CC[C@@]21S(=O)(=O)c1ccc(F)cc1          > 2 h
